Just for reference, BindingDB's records for doi:10.7270/Q28G8J4C is where these values come from.

# Assay target: POsterior Segregation (Caenorhabditis elegans, UniProt G5EF15)
# Test: inhibitors of POS-1/mex-3 RNA binding, dose response, biochemical, fluorescence polarization (AID 1964)
Assignment: determine reported pEC50 for the given molecules.
For clarity, pEC50 is expressed as the negative log10 of concentration in mol/L.

// fetch POsterior Segregation (Caenorhabditis elegans, UniProt G5EF15) pEC50 for Cc1nnc(N2C(=O)C(=O)C(C(=O)c3ccco3)C2c2ccc(C(C)(C)C)cc2)s1 (stereo not drawn)
4.60

// fetch POsterior Segregation (Caenorhabditis elegans, UniProt G5EF15) pEC50 for COc1ccc(OC)c(N2C(=O)C(=Cc3ccco3)C(=O)NC2=S)c1
4.98

// fetch POsterior Segregation (Caenorhabditis elegans, UniProt G5EF15) pEC50 for C[C@@H]1O[C@@H](O[C@@H]2[C@@H](O)[C@H](OCCc3ccc(O)c(O)c3)O[C@H](CO)[C@H]2OC(=O)/C=C/c2ccc(O)c(O)c2)[C@H](O)[C@H](O)[C@H]1O
4.69

// fetch POsterior Segregation (Caenorhabditis elegans, UniProt G5EF15) pEC50 for COc1ccc(C(=O)CC=Nc2ccc([N+](=O)[O-])cc2C)cc1OC
4.26

// fetch POsterior Segregation (Caenorhabditis elegans, UniProt G5EF15) pEC50 for Cn1cc(C=C2C(=O)NC(=O)N(c3ccccc3)C2=O)c2ccccc21
5.28

// fetch POsterior Segregation (Caenorhabditis elegans, UniProt G5EF15) pEC50 for O=C(/C=C/c1ccco1)NCC(=O)NNC1=c2ccccc2=NC1=O
4.88

// fetch POsterior Segregation (Caenorhabditis elegans, UniProt G5EF15) pEC50 for COc1ccccc1N1C(=O)C(=Nc2ccccc2O)C(Cl)C1=O (stereo not drawn)
4.46

// fetch POsterior Segregation (Caenorhabditis elegans, UniProt G5EF15) pEC50 for O=C1N=c2ccccc2=C1NNc1cccc(Cl)c1
3.90

// fetch POsterior Segregation (Caenorhabditis elegans, UniProt G5EF15) pEC50 for C=c1c(C(=O)OC)c(O)c(=Cc2ccco2)n1-c1ccccc1
4.00

// fetch POsterior Segregation (Caenorhabditis elegans, UniProt G5EF15) pEC50 for CC(C)(C)OC(=O)N1CCC2=C(C#N)C(=N)C(C#N)(C#N)[C@H](c3cccnc3)[C@H]2C1
4.21

// fetch POsterior Segregation (Caenorhabditis elegans, UniProt G5EF15) pEC50 for CC1=NC(c2ccccc2)C(C#N)(C#N)C(C#N)(C#N)C1 (stereo not drawn)
5.50

// fetch POsterior Segregation (Caenorhabditis elegans, UniProt G5EF15) pEC50 for O=C(N/N=C/C1C=C(Cl)C=C([N+](=O)[O-])C1=O)c1ccc2c(c1)OCO2 (stereo not drawn)
3.90

// fetch POsterior Segregation (Caenorhabditis elegans, UniProt G5EF15) pEC50 for C=CC1=C(C(=O)O)N2C(=O)[C@@H](NC(=O)C(N=O)c3csc(N)n3)[C@H]2SC1 (stereo partly drawn)
4.30

// fetch POsterior Segregation (Caenorhabditis elegans, UniProt G5EF15) pEC50 for CCOc1ccc(N=C(C(=C(Cl)C(Cl)Cl)[N+](=O)[O-])n2cncn2)cc1
4.33

// fetch POsterior Segregation (Caenorhabditis elegans, UniProt G5EF15) pEC50 for C=CCSc1nnc(N2C(=O)C(=O)C(C(=O)c3ccco3)C2c2ccc(F)cc2)s1 (stereo not drawn)
3.94

// fetch POsterior Segregation (Caenorhabditis elegans, UniProt G5EF15) pEC50 for CC(C)c1ccc(C2C(C#N)=C3Sc4ccccc4N3C(=N)C2C#N)cc1 (stereo not drawn)
4.48

// fetch POsterior Segregation (Caenorhabditis elegans, UniProt G5EF15) pEC50 for Cc1ncc(CO)c(CNNC(=O)C2=CC(=O)C(=O)C(=O)C2)c1O
4.15

// fetch POsterior Segregation (Caenorhabditis elegans, UniProt G5EF15) pEC50 for C=CCn1c(=O)c(=Cc2ccsc2)s/c1=C(\C#N)C(=O)NCCN1CCOCC1
5.19

// fetch POsterior Segregation (Caenorhabditis elegans, UniProt G5EF15) pEC50 for C=c1cc(O)c(CN(C)C)c2oc(=Cc3ccco3)c(O)c12
4.49

// fetch POsterior Segregation (Caenorhabditis elegans, UniProt G5EF15) pEC50 for COc1ccc(N=C(C(=C(Cl)C(Cl)Cl)[N+](=O)[O-])n2nnc3ccccc32)cc1
4.05

// fetch POsterior Segregation (Caenorhabditis elegans, UniProt G5EF15) pEC50 for Cc1[nH]n(C(N)=S)c(=O)c1N=Nc1ccc(S(N)(=O)=O)cc1
4.71

// fetch POsterior Segregation (Caenorhabditis elegans, UniProt G5EF15) pEC50 for CSc1nnc(N2C(=O)C(=O)C(C(=O)c3ccco3)C2c2cccc(Cl)c2)s1 (stereo not drawn)
4.50

// fetch POsterior Segregation (Caenorhabditis elegans, UniProt G5EF15) pEC50 for C=CCSc1nnc(N2C(=O)C(=O)C(C(=O)c3ccco3)C2c2ccccc2F)s1 (stereo not drawn)
4.32

// fetch POsterior Segregation (Caenorhabditis elegans, UniProt G5EF15) pEC50 for COc1ccc(C2CC(=O)C(=CNCCCO)C(=O)C2)cc1 (stereo not drawn)
4.46

---

# Assay target: POsterior Segregation (Caenorhabditis elegans, UniProt G5EF15)
# Sequence (G5EF15 whole entry): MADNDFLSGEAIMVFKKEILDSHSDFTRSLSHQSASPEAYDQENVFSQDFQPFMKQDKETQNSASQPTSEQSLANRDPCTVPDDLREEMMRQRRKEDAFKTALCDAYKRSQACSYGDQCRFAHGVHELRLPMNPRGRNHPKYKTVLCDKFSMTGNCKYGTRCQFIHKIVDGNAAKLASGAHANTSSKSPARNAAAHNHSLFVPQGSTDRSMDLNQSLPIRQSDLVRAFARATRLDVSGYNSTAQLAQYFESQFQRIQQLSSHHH
# Test: inhibitors of POS-1/mex-3 RNA binding, dose response, biochemical, fluorescence polarization (AID 1964)
pEC50: −log10 of the molar value.
# pEC50 >= 5 gives condition met, anything below gives condition not met

Kindly determine if pEC50 recorded for Cc1ccc2oc(=O)c(CC(=O)c3cccs3)nc2c1 is above or exactly 5.
condition not met

Kindly determine if pEC50 recorded for COc1cccc(C2C3=C(CCCC3=O)OC(=N)C2C#N)c1OC(=O)c1ccco1 (stereo unspecified) is above or exactly 5.
condition not met

Kindly determine if pEC50 recorded for C=CCN1C(=O)NC(=O)C(=CCC=Nc2ccccc2)C1=O is above or exactly 5.
condition not met

Kindly determine if pEC50 recorded for O=c1c2ccccc2nc(N=NCc2ccc(O)cc2)n1O is above or exactly 5.
condition not met

Kindly determine if pEC50 recorded for O=C(NN=Cc1c(O)n(-c2ccccc2)c(=S)[nH]c1=O)c1ccc(O)cc1 is above or exactly 5.
condition not met

Kindly determine if pEC50 recorded for N#CC1C(=N)OC2=C(C(=O)CCC2)C1c1ccccc1 (stereo unspecified) is above or exactly 5.
condition not met

Kindly determine if pEC50 recorded for CC(=N)C(C#N)C(=O)CSc1ncnc2ccccc12 (stereo unspecified) is above or exactly 5.
condition not met

Kindly determine if pEC50 recorded for COc1cccc(C2C3CN(C)CCC3=C(C#N)C(=N)C2(C#N)C#N)c1OC (stereo unspecified) is above or exactly 5.
condition met

Kindly determine if pEC50 recorded for CCN(CC)CCNC=C1C(=O)NC(=O)N(Cc2ccccc2)C1=O is above or exactly 5.
condition not met

Kindly determine if pEC50 recorded for O=C1CC(=O)c2c(O)cc(O)c(O)c2C1=O [4,5,7,8-tetrahydroxy-1,2-naphthoquinone] is above or exactly 5.
condition met

Kindly determine if pEC50 recorded for COc1cccc(CN2C(=O)C3(C4=C(CCCC4=O)OC(=N)C3C#N)c3ccccc32)c1 (stereo unspecified) is above or exactly 5.
condition not met

Kindly determine if pEC50 recorded for C/N=C1/S/C(=C\c2ccc(N3CCCC3)c(F)c2)C(=O)N1C is above or exactly 5.
condition met

Kindly determine if pEC50 recorded for Cc1ccc(C(=O)C2C(=O)C(=O)N(Cc3ccco3)C2c2cccc(Br)c2)o1 (stereo unspecified) is above or exactly 5.
condition not met

Kindly determine if pEC50 recorded for Cc1ccc(CN=Nc2ncnc3nc[nH]c23)cc1 is above or exactly 5.
condition not met

Kindly determine if pEC50 recorded for COc1ccc(OC)c(NC=C2C(=O)NC(=S)N(Cc3ccccc3)C2=O)c1 is above or exactly 5.
condition not met

Kindly determine if pEC50 recorded for O=C1NC(=O)N(c2ccc(F)cc2)C(=O)C1=Cc1c[nH]c2ccccc12 is above or exactly 5.
condition not met

Kindly determine if pEC50 recorded for COc1cccc(CN=Nc2ncnc(N)c2[N+](=O)[O-])c1OC is above or exactly 5.
condition not met

Kindly determine if pEC50 recorded for COc1ccc(C2C3=C(CC(C)(C)CC3=O)OC(=N)C2C#N)cc1 (stereo unspecified) is above or exactly 5.
condition not met

Kindly determine if pEC50 recorded for Oc1ccc2ccccc2c1CN=Nc1nnc(-c2ncc[nH]2)c2ccccc12 is above or exactly 5.
condition not met
